- Read-out: CYP2C8 (gene 1558)
- Experiment: LTEA_HepaRG_CYP2C8: Life Technologies and Expression Analysis (LTEA) Assay for CYP2C8 using HepaRG (AID 2283483)
- Measurement Context: mRNA level, 48 h; actives raise or lower the signal
The source made the active and inactive calls. How the source made its calls: active means hit-call score of the fitted dose curve at least 0.9, where 1 is the maximum; inactive means score below 0.9.
Possible outcomes: active, inactive

{"Compound Structure String": "CC(C)C(=O)Nc1ccc([N+](=O)[O-])c(C(F)(F)F)c1", "Class Name": "active"}
{"Compound Structure String": "Cc1nc(-c2ccccn2)ncc1C(=O)Nn1cc(C)c2cc(F)ccc21", "Class Name": "inactive"}
{"Compound Structure String": "COc1cc(C(C)C)c2c(c1)S(=O)(=O)N(COc1cc(=O)n3cccc(OCCN4CCCCC4)c3n1)C2=O", "Class Name": "active"}
{"Compound Structure String": "O=C1CN(N=Cc2ccc([N+](=O)[O-])o2)C(=O)N1", "Class Name": "active"}
{"Compound Structure String": "COc1cc2c(c(OC)c1OC)-c1ccc(OC)c(=O)cc1[C@@H](NC(C)=O)CC2", "Class Name": "active"}
{"Compound Structure String": "C[C@@H](Oc1ccc(CNC(=O)c2cccnc2Oc2ccc3c(c2)OCO3)c(F)c1)C(=O)O", "Class Name": "inactive"}
{"Compound Structure String": "O=C(O)c1ccc2c(c1)nc(C(=O)NC1CCN(C3CC3)CC1)n2Cc1cc(-c2ccc(Cl)s2)on1", "Class Name": "inactive"}

---

- Experiment: APR_HepG2_MitoticArrest_24hr: Apredica 24-hour HepG2 Assay for Mitotic Arrest (AID 2282910)
- Measurement Context: high-content imaging, actives raise or lower the signal
Calls of active or inactive are those of the source. The calls were made as follows: active = hit-call score of the fitted dose curve at least 0.9, where 1 is the maximum; inactive = score below 0.9.
Possible outcomes: active, inactive

{"Compound Structure String": "Cc1nc(-c2ccccn2)ncc1C(=O)Nn1cc(C)c2cc(F)ccc21", "Class Name": "active"}
{"Compound Structure String": "CCOC(N)=O", "Class Name": "inactive"}
{"Compound Structure String": "Cc1ccc(S(=O)(=O)NC(=O)NN2CCCCCC2)cc1", "Class Name": "inactive"}
{"Compound Structure String": "O=C1CN(N=Cc2ccc([N+](=O)[O-])o2)C(=O)N1", "Class Name": "inactive"}
{"Compound Structure String": "NNC(=O)c1ccncc1", "Class Name": "inactive"}
{"Compound Structure String": "COS(C)(=O)=O", "Class Name": "inactive"}

---

- Experiment: ATG_MRE_CIS: Attagene CIS-FACTORIAL HepG2 Assay for human Metal Responsive Element (MRE) (AID 2282954)
- Measurement Context: HepG2 MRE cis-reporter transcription, Attagene multiplex; actives raise or lower the signal
Activity calls are given as the source filed them. The calls were made as follows: active = hit-call score of the fitted dose curve at least 0.9, where 1 is the maximum; inactive = score below 0.9.
Possible outcomes: active, inactive

{"Compound Structure String": "OCC(CO)(CO)CO", "Class Name": "inactive"}
{"Compound Structure String": "CC(=O)c1ccccc1", "Class Name": "inactive"}
{"Compound Structure String": "CCc1cccc(CC)c1N", "Class Name": "inactive"}
{"Compound Structure String": "CCCCCCCCN(C)C", "Class Name": "inactive"}
{"Compound Structure String": "OCCOCCOCCO", "Class Name": "inactive"}
{"Compound Structure String": "OC[C@H]1O[C@@](CO)(O[C@H]2O[C@H](CO)[C@@H](O)[C@H](O)[C@H]2O)[C@@H](O)[C@@H]1O", "Class Name": "inactive"}
{"Compound Structure String": "NC(=O)NN=Cc1ccc([N+](=O)[O-])o1", "Class Name": "inactive"}
{"Compound Structure String": "CCOC(N)=O", "Class Name": "inactive"}
{"Compound Structure String": "CC1(C)C(=O)N(Cl)C(=O)N1Cl", "Class Name": "inactive"}
{"Compound Structure String": "Cc1ccc(S(=O)(=O)NC(=O)NN2CCCCCC2)cc1", "Class Name": "inactive"}
{"Compound Structure String": "O=C(O)c1ccc2c(c1)nc(C(=O)NC1CCN(C3CC3)CC1)n2Cc1cc(-c2ccc(Cl)s2)on1", "Class Name": "inactive"}
{"Compound Structure String": "CCN(CC)C(=S)SSC(=S)N(CC)CC", "Class Name": "active"}
{"Compound Structure String": "OCCC(F)(F)C(F)(F)C(F)(F)C(F)(F)F", "Class Name": "inactive"}
{"Compound Structure String": "FC(F)=C(F)C(F)(F)C(F)(F)C(F)(F)C(F)(F)C(F)(F)C(F)(F)F", "Class Name": "inactive"}
{"Compound Structure String": "c1ccc2cc3ccccc3cc2c1", "Class Name": "inactive"}
{"Compound Structure String": "NC(=O)N(O)[C@@H]1COc2cc(OCc3ccccc3)ccc21", "Class Name": "inactive"}
{"Compound Structure String": "CC(C)c1nnc2ccc(-c3ocnc3-c3cc(F)ccc3F)cn12", "Class Name": "active"}
{"Compound Structure String": "O=S1(=O)CCCO1", "Class Name": "inactive"}
{"Compound Structure String": "NC(N)=O", "Class Name": "inactive"}
{"Compound Structure String": "NCC(F)(F)C(F)(F)C(F)(F)C(F)(F)F", "Class Name": "inactive"}
{"Compound Structure String": "CCCCCCCCCCCCCCCCOS(=O)(=O)O", "Class Name": "active"}
{"Compound Structure String": "CCOc1ccc2[nH]cc(C(=O)NCc3ccccc3)c(=O)c2n1", "Class Name": "inactive"}
{"Compound Structure String": "CCCCCCCCCCCCCCO", "Class Name": "inactive"}
{"Compound Structure String": "CCCCCCCC/C=C\\CCCCCCCC(=O)OC[C@@H](O)[C@H]1OC[C@H](O)[C@H]1O", "Class Name": "inactive"}

---

- Read-out: Urokinase-type plasminogen activator receptor (uPAR), PLAUR (gene 5329)
- Experiment: BSK_CASM3C_uPAR: BioMAP Diversity Plus: CASM3C Assay for Urokinase-type plasminogen activator receptor (uPAR) Biomarker Activity (AID 2283054);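 further: cell-surface uPAR protein level quantified by ELISA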
- Measurement Context: primary human coronary artery smooth muscle cells; actives raise or lower the signal
Calls of active or inactive are those of the source. The calls were made as follows: active = hit-call score of the fitted dose curve at least 0.9, where 1 is the maximum; inactive = score below 0.9.
Possible outcomes: T = active, F = inactive

{"Molecule": "CCCCCCOC(=O)CC(CC(=O)OCCCCCC)(OC(=O)CCC)C(=O)OCCCCCC", "Class Name": "F"}
{"Molecule": "FC(F)C(F)(F)COCC1CO1 (configuration not stated)", "Class Name": "F"}
{"Molecule": "Cc1nccn1-c1ccc(Sc2cccc(C3(C(N)=O)CCOCC3)c2)cc1", "Class Name": "F"}
{"Molecule": "CCCCCCCCCCCCCCO", "Class Name": "T"}
{"Molecule": "Cn1cc[nH]c1=S", "Class Name": "F"}
{"Molecule": "CCCC(CCC)C(=O)O", "Class Name": "F"}
{"Molecule": "CC(C)CC(C)O (configuration not stated)", "Class Name": "F"}
{"Molecule": "CC(C)c1nnc2ccc(-c3ocnc3-c3cc(F)ccc3F)cn12", "Class Name": "F"}
{"Molecule": "NCC(F)(F)C(F)(F)C(F)(F)C(F)(F)F", "Class Name": "F"}
{"Molecule": "COS(C)(=O)=O", "Class Name": "F"}
{"Molecule": "OCCOCCOCCO", "Class Name": "F"}
{"Molecule": "c1ccc(C(O[C@@H]2CCCN(CCc3ccc4c(c3)OCO4)C2)c2ccccc2)cc1", "Class Name": "F"}

---

- Experiment: CCTE_Shafer_MEA_acute_per_burst_spike_number_mean: CCTE's Neural Acute Assay for Average Number of Spikes Per Burst, Shafer Lab (AID 2284015);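 further: hits are decreases in mean spikes per burst versus baseline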
Active and inactive are the calls of the source. The calls were made as follows: active = hit-call score of the fitted dose curve at least 0.9, where 1 is the maximum; inactive = score below 0.9.
Possible outcomes: t (active), f (inactive)

{"Molecule": "CCCCCCCC1CCC(=O)O1 (centres undefined)", "Class Name": "f"}
{"Molecule": "COc1cc2c(c(OC)c1OC)-c1ccc(OC)c(=O)cc1[C@@H](NC(C)=O)CC2", "Class Name": "f"}
{"Molecule": "Cn1c(=O)c2[nH]cnc2n(C)c1=O", "Class Name": "f"}
{"Molecule": "OC(CCl)CCl", "Class Name": "f"}
{"Molecule": "COCc1nnc(-c2ccc[n+]([O-])c2)n1-c1c(Cl)c(Cl)cc2[nH]c(=O)c(=O)[nH]c12", "Class Name": "t"}
{"Molecule": "CCc1ccc(O)c(C(C)(C)C)c1", "Class Name": "t"}
{"Molecule": "OCc1ccccc1", "Class Name": "f"}
{"Molecule": "Cc1ncc([C@@H](CCCCCCc2ccc3c(n2)NCCC3)CC(=O)O)cn1", "Class Name": "f"}
{"Molecule": "c1ccc(C(O[C@@H]2CCCN(CCc3ccc4c(c3)OCO4)C2)c2ccccc2)cc1", "Class Name": "f"}

---

- Experiment: BSK_3C_uPAR: BioMAP Diversity Plus: 3C Assay for Urokinase-type plasminogen activator receptor (uPAR) Biomarker Activity (AID 2282998)
- Measurement Context: BioMAP 3C HUVEC, uPAR biomarker ELISA; actives raise or lower the signal
- Method: BSK_3C is a cell-based, multiplexed-readout assay that uses umbilical vein endothelium, a human vascular primary cell, with measurements taken at 24 hours after chemical dosing in a 96-well plate.BSK_3CAR is an assay component measured in the BSK_3C assay. It measures uPAR antibody related to regulation of gene expression using ELISA technology.Data from the assay component BSK_3CAR was analyzed into 1 assay endpoint. […]
Active and inactive are the calls of the source. The calls were made as follows: active = hit-call score of the fitted dose curve at least 0.9, where 1 is the maximum; inactive = score below 0.9.
Possible outcomes: active, inactive

{"Molecule": "FC(F)C(F)(F)COCC1CO1 (centres undefined)", "Class Name": "inactive"}
{"Molecule": "OC[C@H]1O[C@@](CO)(O[C@H]2O[C@H](CO)[C@@H](O)[C@H](O)[C@H]2O)[C@@H](O)[C@@H]1O", "Class Name": "inactive"}
{"Molecule": "NC(=O)N(O)[C@@H]1COc2cc(OCc3ccccc3)ccc21", "Class Name": "inactive"}
{"Molecule": "FC(F)(F)C(F)(F)C(F)(F)C(F)(F)C(F)(F)C(F)(F)I", "Class Name": "inactive"}
{"Molecule": "C=CN1CCCC1=O", "Class Name": "inactive"}
{"Molecule": "CCOC(N)=O", "Class Name": "inactive"}
{"Molecule": "CCCCCCOC(=O)CC(CC(=O)OCCCCCC)(OC(=O)CCC)C(=O)OCCCCCC", "Class Name": "inactive"}
{"Molecule": "COS(C)(=O)=O", "Class Name": "inactive"}
{"Molecule": "O=C(Cl)C(F)(F)C(F)(F)C(F)(F)C(=O)Cl", "Class Name": "inactive"}
{"Molecule": "CCCCCCCC/C=C\\CCCCCCCC(=O)OC[C@@H](O)[C@H]1OC[C@H](O)[C@H]1O", "Class Name": "inactive"}
{"Molecule": "CCCCCCCCCC", "Class Name": "inactive"}
{"Molecule": "CCCOc1ccc(S(=O)(=O)N2CCN(CC)CC2)cc1-c1nc2c(CC)n(Cc3ccccn3)nc2c(=O)[nH]1", "Class Name": "inactive"}
{"Molecule": "CCCc1ccccc1", "Class Name": "inactive"}
{"Molecule": "CC[C@H](C)C(=O)O[C@H]1C[C@H](O)C=C2C=C[C@H](C)[C@H](CC[C@@H](O)C[C@@H](O)CC(=O)O)[C@H]21", "Class Name": "inactive"}
{"Molecule": "CCCCCCCCN(C)C", "Class Name": "inactive"}
{"Molecule": "CCCCCOC(C)=O", "Class Name": "inactive"}
{"Molecule": "CC(C)c1nnc2ccc(-c3ocnc3-c3cc(F)ccc3F)cn12", "Class Name": "inactive"}
{"Molecule": "NC(=O)N1c2ccccc2C=Cc2ccccc21", "Class Name": "inactive"}
{"Molecule": "OC(Cn1cncn1)(Cn1cncn1)c1ccc(F)cc1F", "Class Name": "inactive"}
{"Molecule": "COc1cc(C(C)C)c2c(c1)S(=O)(=O)N(COc1cc(=O)n3cccc(OCCN4CCCCC4)c3n1)C2=O", "Class Name": "active"}
{"Molecule": "O=C(O)c1cccc(C(=O)O)c1", "Class Name": "inactive"}
{"Molecule": "CCCCCCCC1CCC(=O)O1 (centres undefined)", "Class Name": "inactive"}
{"Molecule": "CCc1cccc(CC)c1N", "Class Name": "inactive"}
{"Molecule": "O=c1[nH]cnc2c1ncn2[C@H]1CC[C@@H](CO)O1", "Class Name": "inactive"}
{"Molecule": "Cc1nc(-c2ccccn2)ncc1C(=O)Nn1cc(C)c2cc(F)ccc21", "Class Name": "active"}
{"Molecule": "O=S1(=O)CCCO1", "Class Name": "inactive"}
{"Molecule": "CCCC(CCC)C(=O)O", "Class Name": "inactive"}
{"Molecule": "Cc1nccn1-c1ccc(Sc2cccc(C3(C(N)=O)CCOCC3)c2)cc1", "Class Name": "inactive"}
{"Molecule": "O=S(=O)(O)CCC(F)(F)C(F)(F)C(F)(F)C(F)(F)C(F)(F)C(F)(F)F", "Class Name": "inactive"}
{"Molecule": "Cc1ccc(S(=O)(=O)NC(=O)NN2CCCCCC2)cc1", "Class Name": "inactive"}
{"Molecule": "Cn1cc[nH]c1=S", "Class Name": "inactive"}
{"Molecule": "c1ccc2ncccc2c1", "Class Name": "inactive"}
{"Molecule": "OCCC(F)(F)C(F)(F)C(F)(F)C(F)(F)F", "Class Name": "inactive"}
{"Molecule": "CC(C)CCCCCCOC(=O)C1CCCCC1C(=O)OCCCCCCC(C)C (centres undefined)", "Class Name": "inactive"}
{"Molecule": "CC1(C)C(=O)N(Cl)C(=O)N1Cl", "Class Name": "inactive"}
{"Molecule": "COCc1nnc(-c2ccc[n+]([O-])c2)n1-c1c(Cl)c(Cl)cc2[nH]c(=O)c(=O)[nH]c12", "Class Name": "inactive"}
{"Molecule": "C=CCc1cc(S(=O)(=O)c2ccc(O)c(CC=C)c2)ccc1O", "Class Name": "active"}
{"Molecule": "OC(CCl)CCl", "Class Name": "inactive"}
{"Molecule": "C[Si](C)(C)C(F)(F)C(F)(F)C(F)(F)F", "Class Name": "inactive"}
{"Molecule": "CCCCN1C(=O)[C@@H]([C@H](O)C2CCCCC2)NC(=O)C12CCN(Cc1ccc(Oc3ccc(C(=O)O)cc3)cc1)CC2", "Class Name": "active"}
{"Molecule": "COc1cc2c(c(OC)c1OC)-c1ccc(OC)c(=O)cc1[C@@H](NC(C)=O)CC2", "Class Name": "active"}
{"Molecule": "CCCCC(CC)C(=O)OCCOCCOCCOC(=O)C(CC)CCCC (centres undefined)", "Class Name": "inactive"}
{"Molecule": "Cc1ncc([C@@H](CCCCCCc2ccc3c(n2)NCCC3)CC(=O)O)cn1", "Class Name": "inactive"}
{"Molecule": "CC(C)CC(C)O (centres undefined)", "Class Name": "inactive"}
